Cited source: BigSolDB 2.1

# STATED_CONDITIONS: in n-pentanol, 313.15 K
READOUT_NAME: solubility (mole fraction)

[[record]]
molecule = "CCCCN(CCCC)CC(O)c1cc(Cl)cc2c1-c1ccc(Cl)cc1/C2=C/c1ccc(Cl)cc1 (stereo unspecified)"
readout_name = "solubility (mole fraction)"
result_value = 0.0017


----------
# STATED_CONDITIONS: in n-pentyl acetate, 318.15 K
READOUT_NAME: solubility (mole fraction)

[[record]]
compound = "CCCCN(CCCC)CC(O)c1cc(Cl)cc2c1-c1ccc(Cl)cc1/C2=C/c1ccc(Cl)cc1 (stereo unspecified)"
result_value = 0.0326


----------
# STATED_CONDITIONS: in n-octanol, 293.15 K
READOUT_NAME: solubility (mole fraction)

[[record]]
compound = "CCCCN(CCCC)CC(O)c1cc(Cl)cc2c1-c1ccc(Cl)cc1/C2=C/c1ccc(Cl)cc1 (stereo unspecified)"
readout_name = "solubility (mole fraction)"
result_value = 0.000945


----------
# STATED_CONDITIONS: in n-hexanol, 288.15 K
READOUT_NAME: solubility (mole fraction)

[[record]]
molecule = "CCCCN(CCCC)CC(O)c1cc(Cl)cc2c1-c1ccc(Cl)cc1/C2=C/c1ccc(Cl)cc1 (stereo unspecified)"
readout_name = "solubility (mole fraction)"
result_value = 0.000477


----------
# STATED_CONDITIONS: in n-butanol, 308.15 K
READOUT_NAME: solubility (mole fraction)

[[record]]
molecule = "CCCCN(CCCC)CC(O)c1cc(Cl)cc2c1-c1ccc(Cl)cc1/C2=C/c1ccc(Cl)cc1 (stereo unspecified)"
result_value = 0.000851


----------
# STATED_CONDITIONS: in n-propanol, 298.15 K
READOUT_NAME: solubility (mole fraction)

[[record]]
compound = "CCCCN(CCCC)CC(O)c1cc(Cl)cc2c1-c1ccc(Cl)cc1/C2=C/c1ccc(Cl)cc1 (stereo unspecified)"
result_value = 0.000279


----------
# STATED_CONDITIONS: in ethyl acetate, 298.15 K
READOUT_NAME: solubility (mole fraction)

[[record]]
compound = "CCCCN(CCCC)CC(O)c1cc(Cl)cc2c1-c1ccc(Cl)cc1/C2=C/c1ccc(Cl)cc1 (stereo unspecified)"
result_value = 0.00538


----------
# STATED_CONDITIONS: in n-propyl acetate, 318.15 K
READOUT_NAME: solubility (mole fraction)

[[record]]
molecule = "CCCCN(CCCC)CC(O)c1cc(Cl)cc2c1-c1ccc(Cl)cc1/C2=C/c1ccc(Cl)cc1 (stereo unspecified)"
readout_name = "solubility (mole fraction)"
result_value = 0.0231


----------
# STATED_CONDITIONS: in ethanol, 283.15 K
READOUT_NAME: solubility (mole fraction)

[[record]]
compound = "CCCCN(CCCC)CC(O)c1cc(Cl)cc2c1-c1ccc(Cl)cc1/C2=C/c1ccc(Cl)cc1 (stereo unspecified)"
readout_name = "solubility (mole fraction)"
result_value = "7.11e-05"

